All values here come from patent US8629112B2.

biological target: CXCR7 (Homo sapiens); construct: host or cells: CHO (PathHunter CHO-CXCR7 β-arrestin cells); experiment: CXCR7 β-arrestin recruitment assay (PathHunter CHO-CXCR7, agonistic assay); format: cell-based; settings: CHO CXCR7 β-arrestin cells, agonistic assay, 90 min at 37° C., chemiluminescence; read-out: β-Arrestin EC50
Sequence (P25106 whole entry): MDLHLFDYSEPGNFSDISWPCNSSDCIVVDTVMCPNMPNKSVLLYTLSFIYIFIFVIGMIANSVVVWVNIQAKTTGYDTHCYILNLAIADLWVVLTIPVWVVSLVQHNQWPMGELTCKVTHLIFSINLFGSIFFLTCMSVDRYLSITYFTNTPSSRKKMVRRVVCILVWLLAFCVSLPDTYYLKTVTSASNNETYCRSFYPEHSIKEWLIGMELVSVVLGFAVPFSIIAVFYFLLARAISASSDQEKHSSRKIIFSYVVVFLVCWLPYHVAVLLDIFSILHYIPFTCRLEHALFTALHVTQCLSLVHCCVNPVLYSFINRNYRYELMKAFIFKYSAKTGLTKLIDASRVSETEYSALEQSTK
Square brackets hold non-standard residues; d marks the D form. Peptide text beside a SMILES is read from it. Oic = O=C(O)[C@@H]1C[C@@H]2CCCC[C@@H]2N1; His(π-Me) = Cn1cncc1C[C@H](N)C(=O)O; Tic = O=C(O)[C@@H]1Cc2ccccc2CN1; Aze = O=C(O)[C@@H]1CCN1
Recorded Endpoint: pEC50
// scale note: pEC50 = -log10(conc_M); give the bare number

{"columns": ["Compound", "pEC50"],
 "data": [
  ["N=C(N)NCCC[C@@H]1NC(=O)[C@H](Cc2c[nH]c3ccccc23)NC(=O)[C@@H](Cc2ccccc2)NC(=O)[C@H](Cc2c[nH]c3ccccc23)NC(=O)[C@@H]2C[C@@H]3CCCC[C@@H]3N2C(=O)[C@H]2CCCN2C1=O [Ex. 26, cyclo(-Trp-^DPhe-Trp-Arg-^DPro-Oic-)] (cyclo([Oic]W[dF]WR[dP]))", 9.10],
  ["CC[C@H](C)[C@@H]1NC(=O)[C@@H](CCCNC(=N)N)NC(=O)[C@H]([C@@H](C)CC)NC(=O)[C@@H]2Cc3ccccc3CN2C(=O)[C@H]2CCCN2C(=O)[C@H](CCCNC(=N)N)NC1=O [compound 33, cyclo(-Ile-^DArg-Ile-Arg-^DPro-Tic-)] (cyclo(IR[dP][Tic]I[dR]))", 7.46],
  ["N=C(N)NCCC[C@@H]1NC(=O)[C@H](Cc2c[nH]c3ccccc23)NC(=O)[C@@H](Cc2ccccc2)NC(=O)[C@H](Cc2c[nH]cn2)NC(=O)[C@@H]2Cc3ccccc3CN2C(=O)[C@H]2CCCN2C1=O [compound 3, cyclo(-His-^DPhe-Trp-Arg-^DPro-Tic-)] (cyclo(H[dF]WR[dP][Tic]))", 7.49],
  ["CC[C@H](C)[C@@H]1NC(=O)[C@@H]2Cc3ccccc3CN2C(=O)[C@H]2CCCN2C(=O)[C@H](CCCNC(=N)N)NC(=O)[C@H](Cc2c[nH]c3ccccc23)NC(=O)[C@@H](Cc2c[nH]cn2)NC1=O [compound 32, cyclo(-Ile-^DHis-Trp-Arg-^DPro-Tic-)] (cyclo(I[dH]WR[dP][Tic]))", 7.15]
]}

pEC50 in this record for CC[C@H](C)[C@@H]1NC(=O)[C@H](Cc2c[nH]c3ccccc23)NC(=O)[C@@H](CCCNC(=N)N)NC(=O)[C@H](Cc2c[nH]c3ccccc23)NC(=O)[C@@H]2CCN2C(=O)[C@H]2CCCN2C1=O [compound 46, cyclo(-Trp-^DArg-Trp-Ile-^DPro-Azt-)] (cyclo([Aze]W[dR]WI[dP])) : 6.68

pEC50 in this record for Cn1cncc1C[C@@H]1NC(=O)[C@@H]2Cc3ccccc3CN2C(=O)[C@H]2CCCN2C(=O)[C@H](CCCNC(=N)N)NC(=O)[C@H](Cc2c[nH]c3ccccc23)NC(=O)[C@@H](Cc2ccccc2)NC1=O [Ex. 4, cyclo(-His(Me)-^DPhe-Trp-Arg-^DPro-Tic-)] (cyclo([His(π-Me)][dF]WR[dP][Tic])) : 7.49

pEC50 in this record for N=C(N)NCCC[C@H]1NC(=O)[C@H](Cc2c[nH]c3ccccc23)NC(=O)[C@@H]2Cc3ccccc3CN2C(=O)[C@H]2CCCN2C(=O)[C@H](Cc2c[nH]c3ccccc23)NC(=O)[C@H](Cc2c[nH]cn2)NC1=O [compound 38, cyclo(-Trp-^DArg-His-Trp-^DPro-Tic-)] (cyclo(HW[dP][Tic]W[dR])) : 6.66
